Hello, the source for this data is patent US20250368633A1, in case you need it.

Tested on: U937 cells
experimental_details: EC50 of necroptosis inhibition in U937 cells (TSZ-induced, CellTiter-Glo)
Format: cell-based
cond: Homo sapiens, U-937; TSZ (hTNF-α, SM-164, Z-VAD-FMK) 20 hours; 10 concentration points; read-out: EC50 intervals of necroptosis inhibition in U937 cells
The compounds listed here are annotated with their EC50.
experimental_endpoint: EC50

compound=CN1C(=O)[C@@H](NC(=O)C(=O)NCCc2ccccc2)COc2ccc(C#CCCO)cc21 experimental_endpoint=EC50 val="< 100 nM"
compound="CN1C(=O)[C@@H](NC(=O)C(=O)NCCc2cccc(F)c2)COc2ccc(C#CCN3CCC(O)C3)cc21 (mixture of isomers)" experimental_endpoint=EC50 val="< 100 nM"
compound=CN1C(=O)[C@@H](NC(=O)C(=O)NCCc2ccccc2)COc2ccc(C#Cc3ccsc3)cc21 experimental_endpoint=EC50 val="< 100 nM"
compound=CN1C(=O)[C@@H](NC(=O)C(=O)NCCc2ccccc2)COc2ccc(O)cc21 experimental_endpoint=EC50 val="100 to 500 nM"

====

The molecules listed here are annotated with their pEC50.
Test system: U937 cells
experimental_details: EC50 of necroptosis inhibition in U937 cells (TSZ-induced, CellTiter-Glo)
Assay type: cell-based
cond: Homo sapiens, U-937; TSZ (hTNF-α, SM-164, Z-VAD-FMK) 20 hours; 10 concentration points; read-out: EC50 intervals of necroptosis inhibition in U937 cells
pEC50: −log10 of the molar value.
experimental_endpoint: pEC50

molecule="CN1C(=O)C(NC(=O)C(=O)NCCc2ccccc2)CCc2ccccc21 (centres unmarked)" tested_system="U937 cells" val="6.30 to 7.00"
molecule=Cc1ccccc1CNC(=O)C(=O)N[C@H]1COc2ccc(C#CCN3CCNC(=O)C3)cc2N(C)C1=O tested_system="U937 cells" val="> 7.00"
molecule=CCOC(=O)CCC#Cc1ccc2c(c1)N(C)C(=O)[C@@H](NC(=O)C(=O)NCCc1ccccc1)CO2 tested_system="U937 cells" val="6.30 to 7.00"
molecule=CN1C(=O)[C@@H](NC(=O)C(=O)NCCc2ccccc2)COc2ccc(C#CCC3(O)COC3)cc21 tested_system="U937 cells" val="> 7.00"
molecule=C[C@H](NC(=O)C(=O)N[C@H]1COc2ccc(C#CC3(O)COC3)cc2N(C)C1=O)c1ccccc1 tested_system="U937 cells" val="6.30 to 7.00"
molecule=CN1C(=O)[C@@H](NC(=O)C(=O)NCCc2ccccc2)COc2ccc(C#CC3CNC3)cc21 tested_system="U937 cells" val="6.30 to 7.00"
molecule=CN1C(=O)[C@@H](NC(=O)C(=O)NCc2ccccc2)COc2ccc(C#CCCO)cc21 tested_system="U937 cells" val="> 7.00"
molecule=CN1C(=O)[C@@H](NC(=O)C(=O)NCc2ccccc2)COc2ccc(C#CCN3CCOCC3)cc21 tested_system="U937 cells" val="> 7.00"

====

tested_system: RIPK1 kinase (Homo sapiens, UniProt Q13546)
Construct: purchased Promega VA7593
Sequence (Q13546 whole entry): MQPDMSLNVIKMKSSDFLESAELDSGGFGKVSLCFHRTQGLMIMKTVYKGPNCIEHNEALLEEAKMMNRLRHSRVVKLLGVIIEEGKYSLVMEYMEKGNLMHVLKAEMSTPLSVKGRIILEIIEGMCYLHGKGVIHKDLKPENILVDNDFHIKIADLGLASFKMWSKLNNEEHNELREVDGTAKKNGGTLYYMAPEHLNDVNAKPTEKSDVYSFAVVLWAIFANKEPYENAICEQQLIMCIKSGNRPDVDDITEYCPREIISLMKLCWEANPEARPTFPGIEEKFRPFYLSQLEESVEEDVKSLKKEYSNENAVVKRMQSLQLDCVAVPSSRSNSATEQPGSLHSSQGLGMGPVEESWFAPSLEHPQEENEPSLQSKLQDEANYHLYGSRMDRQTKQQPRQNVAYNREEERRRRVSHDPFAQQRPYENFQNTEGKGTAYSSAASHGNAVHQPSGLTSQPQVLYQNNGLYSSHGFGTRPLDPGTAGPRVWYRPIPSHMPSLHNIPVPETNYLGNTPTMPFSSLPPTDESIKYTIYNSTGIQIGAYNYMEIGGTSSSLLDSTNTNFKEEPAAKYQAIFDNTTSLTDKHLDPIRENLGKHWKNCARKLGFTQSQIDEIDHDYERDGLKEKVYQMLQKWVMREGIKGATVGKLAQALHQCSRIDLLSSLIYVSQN
experimental_details: In vitro RIPK1 kinase activity assay (ADP-Glo), inhibition by compounds at 1 μM
Type: biochemical
cond: compound 1 μM; ATP 10 μM; MBP substrate 100 μg/mL; read-out: RIPK1 kinase activity inhibition rate range
The compounds listed here are annotated with their inhibition at 1 µM.
experimental_endpoint: inhibition at 1 µM

structure_string=C[C@@H](NC(=O)C(=O)N[C@H]1COc2ccc(C#CCN3CCC(=O)CC3)cc2N(C)C1=O)c1ccccc1 val="≥ 75%"
structure_string=CN1C(=O)[C@@H](NC(=O)C(=O)NCCc2ccccc2)COc2ccc(C#CCCC(=O)O)cc21 val="≥ 75%"
structure_string=Cc1ncsc1-c1ccc(CNC(=O)[C@@H]2C[C@@H](O)CN2C(=O)[C@@H](NC(=O)COCCOCCN2CCC(C#Cc3ccc4c(c3)N(C)C(=O)[C@@H](NC(=O)C(=O)NCCc3ccccc3)CO4)CC2)C(C)(C)C)cc1 val="50 to 74%"
